Here, each record is paired with measured IC50 data.
# Tested on: TMD-8 cells
# TEST_DETAILS: TMD-8 anti-proliferation assay
# Assay type: cell-based
# SETTINGS: 72 hours
The response must be a number in nM with no trailing unit.

Here are 2 molecules together with their reported answers.
MOLECULE: Nc1nccn2c(C3CCC(CO)OC3)nc(-c3ccc(Oc4ccccc4)cc3F)c12 (single isomer, unassigned) [Compound 3]
IC50 (nM): 106
//
MOLECULE: Nc1ncnn2c(C3CCC(CO)OC3)nc(-c3ccc(Oc4ccccc4)cc3F)c12 (single isomer, unassigned) [Compound 11]
IC50 (nM): 70.9

Query: // lookup IC50 for Nc1nccn2c(C3CCC(CO)OC3)nc(-c3ccc(Oc4cccc(F)c4F)cc3)c12 (single isomer, unassigned) [Compound 7]
Reply: 219

Query: Any idea what its IC50 is? The molecule is Nc1nccn2c(C3CCC(CO)OC3)nc(-c3ccc(Oc4ccccc4)c(F)c3F)c12 (single isomer, unassigned) [Compound 4]
Reply: 16.2

Query: What IC50 value was documented for this molecule, Nc1nccn2c(C3CCC(CO)OC3)nc(-c3ccc(Oc4ccccc4)c(F)c3F)c12 (single isomer, unassigned) [Compound 5] ?
Reply: 102

Query: Would you kindly share the measured IC50 for Nc1nccn2c(C3CCC(CO)OC3)nc(-c3ccc(Oc4cccc(F)c4F)cc3)c12 (single isomer, unassigned) [Compound 6] ?
Reply: 27.4
